Provenance of the data: the supplement of paper PMC10567573

B1: PKD2L1 (parent)
chain: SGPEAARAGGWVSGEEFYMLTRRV

# Variants of: B1
# Protocol details: protein stability index of a GFP-peptide fusion (GPS, HEK-293T) (PSI 1-6); higher = more stable;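 further: lentivirally expressed fusions sorted by FACS into six bins by GFP to DsRed ratio, PSI derived from sequencing read proportions per bin multiplied by bin number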
# Study conditions: c terminus: a fixed tail appended
Catalogue of protein stability index values
Result type: protein stability index

| Alteration | Result value |
| --- | --- |
| G2K | 1.8 |
| E4T | 1.78 |
| R22I | 2.28 |
| W11F | 2.05 |
| A6H | 2.24 |
| S13V | 2.03 |
| E16Q | 2.25 |
| E16K | 2.5 |
| A8P | 2.05 |
| F17E | 4.26 |
| F17N | 3.89 |
| M19F | 2.93 |
| G10C | 1.82 |
| G10I | 3.36 |
| E15P | 2.52 |
| G10W | 2.53 |
| A8N | 2.18 |
| G9C | 1.59 |
| R7G | 2.24 |
| E16D | 2.29 |
| P3K | 2.37 |
| R23A | 1.85 |
